Entries annotated with measured melting point

Prompt line: // lookup melting point for Cc1nc2c(F)cccc2cc1NC(=O)[C@](C)(Cc1ccccc1)CC(F)(F)F
Response line: 137 to 139 °C

Others:
Prompt line: // lookup melting point for CC(Cc1ccccc1)(CC(F)(F)F)C(=O)Nc1cnc2cc(F)ccc2c1 (centres unmarked)
Response line: 180 to 182 °C

Prompt line: Then this molecule: CC(Cc1ccccc1)(CC(F)(F)F)C(=O)Nc1cnc2c(Cl)cccc2c1 (centres unmarked)
Response line: 104 to 106 °C

Prompt line: Then this molecule: C=C(C)CC(Cc1ccccc1)C(=O)Nc1cc2cccc(F)c2nc1C (centres unmarked)
Response line: 97 to 99 °C

Prompt line: Then this molecule: C=C(C)CC(C)(Cc1ccccc1)C(=O)Nc1cnc2c(F)cccc2c1C (centres unmarked)
Response line: 105 to 109 °C

Prompt line: Then this molecule: C#CCC(C)(Cc1ccccc1)C(=O)Nc1cnc2c(F)cccc2c1 (centres unmarked)
Response line: 189 to 191 °C

Prompt line: Then this molecule: CC(Cc1ccccc1)(CC1(F)CC1)C(=O)Nc1cnc2c(F)cccc2c1 (centres unmarked)
Response line: 162 to 164 °C

Prompt line: Then this molecule: Cc1nc2c(Cl)cccc2cc1NC(=O)C(C)(Cc1ccccc1)CC(F)(F)F (centres unmarked)
Response line: 47 to 50 °C
